system: Simian immunodeficiency virus; test: Antiviral activity against R5 tropic SIV mac239 in HeLa H1-JC.37 cells by focal infectivity assay; type: functional, organism-based
result_type: pEC50
pEC50 field: float, defined as -log10 of concentration (mol/L).

Reported pEC50 for O=S(=O)(/C=C/c1cc(O)c(O)c(O)c1)CS(=O)(=O)/C=C/c1cc(O)c(O)c(O)c1 was 5.92

###

tested on: Human immunodeficiency virus 1; test: Antiviral activity against E clade R5 tropic HIV1 93TH078 in HeLa H1-JC.37 cells by focal infectivity assay; format: functional, organism-based; conditions: Human immunodeficiency virus 1, 93TH078, HeLa
result_type: EC50 (nM)
Reply numerically in nM, unit not repeated.

Item O=S(=O)(/C=C/c1cc(O)c(O)c(O)c1)CS(=O)(=O)/C=C/c1cc(O)c(O)c(O)c1 was tested on Human immunodeficiency virus 1; the reported EC50 is 500
